This collection of values is drawn from patent US8846730B2.

target-or-system: rat CB1 receptors (HEK cells) (Rattus norvegicus (Rat), UniProt P20272)
Sequence (P20272 whole entry): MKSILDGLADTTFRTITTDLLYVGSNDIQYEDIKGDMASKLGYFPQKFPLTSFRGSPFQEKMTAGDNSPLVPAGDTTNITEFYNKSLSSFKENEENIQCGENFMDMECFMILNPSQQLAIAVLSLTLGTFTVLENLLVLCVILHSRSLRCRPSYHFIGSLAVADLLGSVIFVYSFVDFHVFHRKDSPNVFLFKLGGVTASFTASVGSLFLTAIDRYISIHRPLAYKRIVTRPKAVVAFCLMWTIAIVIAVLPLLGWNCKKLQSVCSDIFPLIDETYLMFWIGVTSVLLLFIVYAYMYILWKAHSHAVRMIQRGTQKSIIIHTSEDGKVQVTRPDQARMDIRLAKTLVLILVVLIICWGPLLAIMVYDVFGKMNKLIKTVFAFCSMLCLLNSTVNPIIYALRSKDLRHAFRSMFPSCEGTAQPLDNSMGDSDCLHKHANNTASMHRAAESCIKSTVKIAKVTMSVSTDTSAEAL
procedure-details: rat CB1 cyclase functional assay (HitHunter cAMP)
Type: cell-based
condition-notes: HEK cells, forskolin 37 μM; read-out: rCB1 cyclase (EC50)
attribute-measured: log10(EC50) (log10 of the value in µM)
// do not treat as linear: log10 of EC50, unit µM

CN1CCCC[C@H]1COc1ccc(C(F)(F)F)cc1C(=O)/N=c1\sc(C(C)(C)C)cn1C[C@H]1CCCO1 | -0.21
CC(C)(C)c1cn(C[C@H]2CCCO2)/c(=N/C(=O)c2cc(C(F)(F)F)ccc2OC[C@@H]2CCCCN2)s1 | -0.40
CC(C)(C)c1cn(C[C@H]2CCCO2)/c(=N/C(=O)c2cc(C(F)(F)F)ccc2OC[C@H]2CCC[N+]2(C)[O-])s1 (stereo partly shown) | 0.89
CC(COc1ccc(C(F)(F)F)cc1C(=O)/N=c1\sc(C(C)(C)C)cn1C[C@H]1CCCO1)=NO | 0.37

Reported log10(EC50) for rat CB1 receptors (HEK cells) (Rattus norvegicus (Rat), UniProt P20272), given CN1CCN(C)C(COc2ccc(C(F)(F)F)cc2C(=O)/N=c2\sc(C(C)(C)C)cn2C[C@@H]2CCCO2)C1 (stereo partly shown) ?
0.61
